Origin of measurements: patent US20250042916A1

- test_system: human calcitonin receptor (CTR) and RAMP3 (AMY3) in COS-7 cells (Homo sapiens, UniProt O60896+P30988)
- Sequence (P30988 25-474): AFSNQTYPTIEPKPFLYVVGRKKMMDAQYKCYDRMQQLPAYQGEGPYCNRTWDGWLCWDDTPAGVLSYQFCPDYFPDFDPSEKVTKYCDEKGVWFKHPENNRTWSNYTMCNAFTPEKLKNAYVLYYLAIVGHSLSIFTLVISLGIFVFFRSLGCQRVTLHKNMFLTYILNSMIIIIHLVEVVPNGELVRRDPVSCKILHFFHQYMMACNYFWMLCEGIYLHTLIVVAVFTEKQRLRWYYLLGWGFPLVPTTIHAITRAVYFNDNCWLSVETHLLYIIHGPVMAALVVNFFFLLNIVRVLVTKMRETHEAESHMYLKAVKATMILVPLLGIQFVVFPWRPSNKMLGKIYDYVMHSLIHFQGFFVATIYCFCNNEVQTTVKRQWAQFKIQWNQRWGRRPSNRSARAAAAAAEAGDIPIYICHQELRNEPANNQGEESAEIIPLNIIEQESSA
- Sequence (O60896 24-148): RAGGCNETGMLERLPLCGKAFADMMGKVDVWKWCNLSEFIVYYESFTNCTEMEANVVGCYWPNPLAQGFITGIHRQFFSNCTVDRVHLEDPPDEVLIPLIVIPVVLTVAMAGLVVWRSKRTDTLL
- run_description: Amylin Receptor cAMP Assay I
- Assay type: cell-based
- assay_context: values marked *: Amylin Receptor cAMP Assay I; COS-7/AMY3 cells; read-out: Amylin Receptor cAMP Stimulation Activity: EC50
pEC50: −log10 of the molar value.
Assign class by pEC50: not lower than 7 means T; lower than 7 means F.

Would you say Cc1nnc(-c2c(CC(C)c3ccc(F)cc3)nc(CC(C)C)c(C(N)=O)c2-c2ccc(C(=O)N[C@@H]3CCc4ncccc43)s2)o1 (stereo partly shown) [Compound 191] shows pEC50 at minimum 7?
F

Would you say Cc1nnc(-c2c(CCc3ccc(F)cc3)nc(CC(C)C)c(C(N)=O)c2-c2cc3cccc(Br)c3s2)o1 [Compound 129] shows pEC50 at minimum 7?
F

---

Measured EC50 of individual entries
- test_system: human calcitonin receptor (CTR) and RAMP3 (AMY3) in COS-7 cells (Homo sapiens, UniProt O60896+P30988)
- run_description: Amylin Receptor cAMP Assay I
- Assay type: cell-based
- assay_context: values marked *: Amylin Receptor cAMP Assay I; COS-7/AMY3 cells; read-out: Amylin Receptor cAMP Stimulation Activity: EC50
State just the number; it will be interpreted in µM.

Worked cases, answers included:
1) Cc1ncc(-c2c(CCc3ccc(F)cc3)nc(CC(C)C)c(C(N)=O)c2-c2ccc(C(=O)NCc3ccc(F)c(F)c3)s2)o1 [Compound 152]    0.0115
2) Cc1nnc(-c2c(CCc3ccc(F)cc3)nc(CC(C)C)c(C(N)=O)c2-c2ccc3c(ccn3CC3CCc4ccccc43)c2)o1 (stereo not shown) [Compound 177]    0.394
3) COc1cc(CNC(=O)c2ccc(-c3c(C(N)=O)c(CC(C)C)nc(CCc4ccc(F)cc4)c3-c3nnc(C)o3)s2)ccc1F [Compound 117]    0.0402
4) Cc1nnc(-c2c(CCc3ccc(F)cc3)nc(CC(C)C)c(C(N)=O)c2-c2ccc(C(=O)NCc3ccc(F)c(F)c3)o2)o1 [Compound 128]    0.162
5) Cc1nnc(-c2c(CC(O)c3ccc(F)cc3)nc(CC(C)C)c(C(N)=O)c2-c2ccc(C(=O)N[C@@H]3CCc4ccccc43)s2)o1 (stereo partly shown) [Compound 185]    0.507

Param item = Cc1cc(-c2c(CCc3ccc(F)cc3)nc(CC(C)C)c(C(N)=O)c2-c2ccc(C(=O)NCc3ccc(F)c(F)c3)s2)ccn1 [Compound 160] ; retrieve measured EC50.
0.026

Param item = Cc1nnc(-c2c(CCc3ccc(F)cc3)nc(CC(C)C)c(C(N)=O)c2-c2ccc(C(=O)N[C@H]3CCc4ncccc43)s2)o1 [Compound 124] ; retrieve measured EC50.
0.0358

Param item = COc1ccc(CNC(=O)c2ccc(-c3c(C(N)=O)c(CC(C)C)nc(CCc4ccc(F)cc4)c3-c3nnc(C)o3)s2)cc1 [Compound 114] ; retrieve measured EC50.
0.323

Param item = Cc1ccn(CCc2nc(CC(C)C)c(C(N)=O)c(-c3ccc(C(=O)NCc4ccc(F)c(F)c4)s3)c2-c2nnc(C)o2)n1 [Compound 183] ; retrieve measured EC50.
1.91

Param item = Cc1nnc(-c2c(CCc3ccc(F)cc3)nc(CC(C)C)c(C(N)=O)c2-c2ncc(C(=O)NCc3ccc(F)c(F)c3)s2)o1 [Compound 125] ; retrieve measured EC50.
0.212

---

- test_system: human calcitonin receptor (CTR) and RAMP3 (AMY3) in COS-7 cells (Homo sapiens, UniProt O60896+P30988)
- run_description: Amylin Receptor cAMP Assay I
- Assay type: cell-based
- assay_context: values marked *: Amylin Receptor cAMP Assay I; COS-7/AMY3 cells; read-out: Amylin Receptor cAMP Stimulation Activity: EC50
Measured log10(EC50) of individual entries
Form field - Quantity: EC50; Unit: µM; Scale: log10

Worked cases, answers included:
1. CC(C)Cc1nc(CCc2ccc(F)cc2)c(-c2nc(C(F)(F)F)no2)c(-c2ccc(C(=O)NCc3ccc(F)c(F)c3)s2)c1C(N)=O [Compound 105]    -0.23
2. Cc1noc(-c2c(CCc3ccc(F)cc3)nc(CC(C)C)c(C(N)=O)c2-c2ccc(C(=O)NCc3ccc(F)c(F)c3)s2)n1 [Compound 102]    -1.07
3. Cc1nnc(-c2c(CCc3ccc(F)cc3)nc(OC(C)C)c(C(N)=O)c2-c2ccc(C(=O)NCc3ccc(F)c(F)c3)s2)o1 [Compound 167]    -0.47
4. Cc1nnc(-c2c(C34CC(C(F)(F)F)(C3)C4)nc(CC(C)C)c(C(N)=O)c2-c2ccc(C(=O)NCc3ccc(F)c(F)c3)s2)o1 [Compound 194]    0.53
5. Cc1nnc(-c2c(CCC3CCOCC3)nc(CC(C)C)c(C(N)=O)c2-c2cc3ccnc(N[C@@H]4CCc5ncccc54)c3s2)o1 [Compound 196]    -0.55

Param item = Cc1nnc(-c2c(C3CC3c3ccc(F)cc3)nc(CC(C)C)c(C(N)=O)c2-c2ccc(C(=O)NCc3ccc(F)c(F)c3)s2)o1 (stereo not shown) [Compound 178] ; retrieve measured log10(EC50).
-0.95

Param item = CCc1nc(CC(C)C)c(C(N)=O)c(-c2cc3ccnc(N[C@@H]4CCc5cc(F)ccc54)c3s2)c1-c1nnc(C)o1 [Compound 188] ; retrieve measured log10(EC50).
-1.44

Param item = CC(C)Cc1nc(CCc2ccc(F)cc2)c(-c2nc(C(C)C)no2)c(-c2ccc(C(=O)NCc3ccc(F)c(F)c3)s2)c1C(N)=O [Compound 103] ; retrieve measured log10(EC50).
-0.50

Param item = Cc1nnc(-c2c(C34CC(C(F)F)(C3)C4)nc(CC(C)C)c(C(N)=O)c2-c2ccc(C(=O)NCc3ccc(F)c(F)c3)s2)o1 [Compound 190] ; retrieve measured log10(EC50).
0.61

Param item = Cc1nnc(-c2c(CCc3ccc(F)cc3)nc(CC(C)C)c(C(N)=O)c2-c2ccc(C(=O)NCc3ccc(F)c(F)c3)cc2)o1 [Compound 126] ; retrieve measured log10(EC50).
-0.79

Param item = Cc1nc(-c2c(CCc3ccc(F)cc3)nc(CC(C)C)c(C(N)=O)c2-c2ccc(C(=O)NCc3ccc(F)c(F)c3)s2)co1 [Compound 169] ; retrieve measured log10(EC50).
-0.91

Param item = Cc1nnc(-c2c(CCc3ccc(F)cc3)nc(CC(C)C)c(C(N)=O)c2-c2cc3cccc(C#N)c3s2)o1 [Compound 138] ; retrieve measured log10(EC50).
0.35

Param item = CC(C)Cc1nc(CCc2ccc(F)cc2)c(-c2nnc(C(C)C)o2)c(-c2ccc(C(=O)NCc3ccc(F)c(F)c3)s2)c1C(N)=O [Compound 147] ; retrieve measured log10(EC50).
-2.64

---

- test_system: human calcitonin receptor (CTR) in COS-7 cells (Homo sapiens)
- run_description: Calcitonin Receptor (CTR) cAMP Assay
- assay_context: COS7-human CTR Clone #2 cells; read-out: Calcitonin Receptor cAMP Stimulation Activity: EC50
- Method: Calcitonin Receptor (CTR) cAMP Assay The calcitonin receptor (CTR) belongs to the subfamily of GPCRs known as the secretin or ‘B’ family of GPCRs. […] After incubation, the cAMP assay signal was generated using cAMP dynamic 2 kit (Revvity, Cat #62AM4PEC). […] The samples were then incubated at room temperature for 1 hour protected from light. the fluorescence was read at 665 and 615 nm with Reader PerkinElmer EnVision 2105.
Binary label based on EC50 with cut-off 2 nM: below gives condition met, not below gives condition not met.

Example results:
1) COc1cccc2c1CC[C@H]2NC(=O)c1ccc(-c2c(C(N)=O)c(CC(C)C)nc(CCc3ccc(F)cc3)c2-c2nnc(C)o2)s1    condition met
2) Cc1nnc(-c2c(CC34CC(C(F)F)(C3)C4)nc(CC(C)C)c(C(N)=O)c2-c2ccc(C(=O)NCc3ccc(F)c(F)c3)s2)o1    condition not met
3) Cc1nnc(-c2c(CCc3ccc(F)cc3)nc(CC(C)C)c(C(N)=O)c2-c2ccc(C(=O)N[C@@H]3CCc4ccccc43)s2)o1    condition not met
4) Cc1nnc(-c2c(CCC3CCN(C(=O)OCc4ccccc4)CC3)nc(CC(C)C)c(C(N)=O)c2-c2ccc(C(=O)NCc3ccc(F)c(F)c3)s2)o1    condition not met
5) Cc1nnc(-c2c(CCc3ccc(F)cc3)nc(CC(C)C)c(C(N)=O)c2-c2ccc3c(c2)CCC3OCc2ccc(F)c(F)c2)o1 (stereo not shown)    condition not met

Dear colleague, could you confirm whether EC50 of Cc1nnc(-c2c(C34CC(C(F)F)(C3)C4)nc(CC(C)C)c(C(N)=O)c2-c2ccc(C(=O)NCc3ccc(F)c(F)c3)s2)o1 falls below 2 nM? Thanks.
condition not met

Dear colleague, could you confirm whether EC50 of COc1cccc2c1CC[C@H]2Nc1nccc2cc(-c3c(C(N)=O)c(CC(C)C)nc(CCC4CCOCC4)c3-c3nnc(C)o3)sc12 falls below 2 nM? Thanks.
condition met

Dear colleague, could you confirm whether EC50 of Cc1nnc(-c2c(CCc3ccc(F)cc3)nc(CC(C)C)c(C(N)=O)c2-c2cc3ccnc(NCc4ccc(F)c(F)c4)c3s2)o1 falls below 2 nM? Thanks.
condition met

Dear colleague, could you confirm whether EC50 of CCc1nc(CC(C)C)c(C(N)=O)c(-c2cc3ccnc(N[C@@H]4CCc5cc(F)ccc54)c3s2)c1-c1nnc(C)o1 falls below 2 nM? Thanks.
condition not met

Dear colleague, could you confirm whether EC50 of Cc1nnc(-c2c(CCc3ccc(F)cc3)nc(CC(C)C)c(C(N)=O)c2-c2ccc3c(ccn3CCc3ccc(F)c(F)c3)c2)o1 falls below 2 nM? Thanks.
condition not met

Dear colleague, could you confirm whether EC50 of Cc1nnc(-c2c(CCc3ccc(F)cc3)nc(CC(C)C)c(C(N)=O)c2-c2ccc(C(=O)NCc3ccc(F)c(F)c3)s2)o1 falls below 2 nM? Thanks.
condition met

Dear colleague, could you confirm whether EC50 of Cc1nnc(-c2c(CCc3ccc(F)cc3)nc(CC(C)C)c(C(N)=O)c2-c2ccc3c(c2)CCCN3CCc2ccc(F)c(F)c2)o1 falls below 2 nM? Thanks.
condition not met

Dear colleague, could you confirm whether EC50 of COC1CCCN(c2nccc3cc(-c4c(C(N)=O)c(CC(C)C)nc(CCc5ccc(F)cc5)c4-c4nnc(C)o4)sc23)C1 (stereo not shown) falls below 2 nM? Thanks.
condition not met
